Origin of values: patent US20130266649A1

method_description: clinical
stated_conditions: human, plasma, po, 2.5 mg
parameter: Cmax (ng/mL)
Just the number please, in ng/mL, no unit attached.

Item: `CC(=O)Nc1cccc(-n2c(=O)n(C3CC3)c(=O)c3c(Nc4ccc(I)cc4F)n(C)c(=O)c(C)c32)c1` | Cmax: 26.7

* * *

method_description: clinical
stated_conditions: human, plasma, po, 3 mg
parameter: half-life (h)
Just the number please, in h, no unit attached.

Item: CC(=O)Nc1cccc(-n2c(=O)n(C3CC3)c(=O)c3c(Nc4ccc(I)cc4F)n(C)c(=O)c(C)c32)c1 [Compound] | half-life: 110

* * *

method_description: in vivo
stated_conditions: female, beagle, dog, in vivo, po, 0.4 mg/m2
parameter: AUC (ng·h/mL)
Just the number please, in ng·h/mL, no unit attached.

Item: `CC(=O)Nc1cccc(-n2c(=O)n(C3CC3)c(=O)c3c(Nc4ccc(I)cc4F)n(C)c(=O)c(C)c32)c1` | AUC: 211
